assay: Cytotoxicity against African green monkey Vero cells assessed as reduction in cell viability after 72 hrs by MTT assay; type: cell-based; conditions: chlorocebus sabaeus, Vero cells
Measured CC50 at 72 h, listed per entry for reference.
The reply should be a number in µg/mL, with the unit left off.

O=C(O)c1cn(C2CC2)c2cc(N3CCNCC3)c(F)cc2c1=O :: 512
CCOC(=O)c1c(-c2ccc(OC)cc2)oc2ccc(OCCCN3C(=O)/C(=N\OC)c4ccccc43)cc12 :: 128
CCO/N=C1\C(=O)N(CCCCCOc2ccc3oc(-c4ccc(OC)cc4)c(C(=O)OCC)c3c2)c2ccc(F)cc21 :: 32

With those in mind, consider the next compound.
Note to self: CC50 at 72 h recorded for `CCO/N=C1\C(=O)N(CCCOc2ccc3oc(-c4ccc(OC)cc4)c(C(=O)OCC)c3c2)c2ccc(OC)cc21` was 32
